# ASSAY_PROTOCOL: Calcein AM viability test on ATRA-differentiated SH-SY5Y cells
# Assay type: cell-based, human
# MEASUREMENT_CONDITIONS: human, ATRA-differentiated SH-SY5Y neuroblastoma cells, 10 μM compound, DMSO control = 100%, read-out: % of viability, relative to control
This section presents compounds with their documented viability at 24 h, 10 µM values.
MEASURED_PARAMETER: viability at 24 h, 10 µM (%)

- c1ccc(Cn2cnc3c(N4CCCCC4)nc(N4CCCC4)nc32)cc1: 134
- Oc1cccc(Cn2cnc3c(N4CCCC4)nc(N4CCCC4)nc32)c1: 142
- c1ccc(Cn2cnc3c(N4CCSCC4)nc(N4CCSCC4)nc32)cc1: 129
- c1ccc(Cn2cnc3c(N4CCOCC4)nc(N4CCOCC4)nc32)cc1: 146
- Oc1ccc(Cn2cnc3c(N4CCCC4)nc(N4CCCC4)nc32)cc1: 123
- c1ccc(Cn2cnc3c(N4CCCC4)nc(N4CCCCC4)nc32)cc1: 117
- Clc1cccc(Cl)c1Cn1cnc2c(N3CCCC3)nc(N3CCCC3)nc21: 152

---

# Test system: SH-SY5Y human neuroblastoma cell line
# ASSAY_PROTOCOL: Oxidative stress measurement (dihydroethidium, superoxide) in SH-SY5Y, salsolinol-induced model of PD
# Type: cell-based
# MEASUREMENT_CONDITIONS: Homo sapiens, SH-SY5Y; 10 μM compound with SAL 500 μM, 6 h; read-out: Oxidative stress (% of control)
activity at 10 µM values by entry
MEASURED_PARAMETER: activity at 10 µM

* Oc1cccc(Cn2cnc3c(N4CCCC4)nc(N4CCCC4)nc32)c1 [Compound 26] | 142%
* CC(=O)N(O)CCCCCNC(=O)CCC(=O)N(O)CCCCCNC(=O)CCC(=O)N(O)CCCCCN [Deferoxamine, reference compound] | 101%
* Oc1ccc(Cn2cnc3c(N4CCCC4)nc(N4CCCC4)nc32)cc1 [Compound 30] | 97.4%
